Protocol Description: Example 6: noncompartmental plasma pharmacokinetics after third dose of the Combination (2 g meropenem/2 g Compound I q8h)
Measurement Context: both, human, plasma, intravenous, Tmax, meropenem 2 g q8h, 4-hour BAL Sampling Group
Measurement Type: Tmax (h)
Provide the reading as a plain figure in h.

Query string: Report Tmax for "C[C@@H](O)[C@H]1C(=O)N2C(C(=O)O)=C(S[C@@H]3CN[C@H](C(=O)N(C)C)C3)[C@H](C)[C@H]12" please.
Result string: 2.98

====

Protocol Description: clinical
Measurement Context: human, in vivo, 250 mg, Vss
Measurement Type: Vd (L)
Report only the number, with the unit L understood.

Query string: Using the record for "O=C(O)C[C@@H]1CC[C@H](NC(=O)Cc2cccs2)B(O)O1" , report its Vd.
Result string: 23.1

====

Protocol Description: clinical
Measurement Context: both, human, in vivo, Plasma concentration at time of bronchoscopy and BAL
Protocol: A total of twenty-five (n=25) male and female subjects who met the study entry criteria and completed all phases of the pharmacokinetic study were included in this pharmacokinetic analysis. […] The concentration of drug (ABXAM) in the alveolar cells (AC) was determined as follows: […] The concentration ratios of ELF and AM to the simultaneous plasma concentrations were calculated for each subject and summarized for each group at each sampling time. […]
Measurement Type: concentration at 8 h (ng/mL)
// return numeric value only (unit: ng/mL, not printed)

Query string: Value lookup for concentration at 8 h; key = O=C(O)C[C@@H]1CC[C@H](NC(=O)Cc2cccs2)B(O)O1 [Compound I]
Result string: 2740

====

Protocol Description: Example 6: noncompartmental plasma pharmacokinetics after third dose of the Combination (2 g meropenem/2 g Compound I q8h)
Measurement Context: both, human, plasma, intravenous, Cmax, Compound I 2 g q8h, 3.25-hour BAL Sampling Group
Method: A total of twenty-five (n=25) male and female subjects who met the study entry criteria and completed all phases of the pharmacokinetic study were included in this pharmacokinetic analysis. […] Peak plasma concentration (Cmax) and time to Cmax (Tmax) were read from the observed plasma concentration-time profile after the start of the intravenous infusion of the third Combination dose. […] The elimination rate constant (β) was determined by nonlinear least-squares regression. […]
Measurement Type: Cmax (µg/mL)
Output spec: scalar in µg/mL, unitless text.

Query string: Consider the molecule O=C(O)C[C@@H]1CC[C@H](NC(=O)Cc2cccs2)B(O)O1 [Compound I] and give its measured Cmax.
Result string: 59.7

====

Protocol Description: Example 1: pharmacokinetics of Compound I, single (SD) and multiple (MD, q8h 7 days) ascending doses, 3-hour IV infusion, healthy adult subjects
Assay type: in vivo, human
Measurement Context: human, plasma, intravenous, 1000 mg, 1000 mg multiple dose
Measurement Type: Cmax (ng/mL)
Kindly provide the numeric value in ng/mL only, without the unit symbol.

Query string: Consider the molecule "O=C(O)C[C@@H]1CC[C@H](NC(=O)Cc2cccs2)B(O)O1" and give its measured Cmax.
Result string: 21300

====

Protocol Description: Example 1: pharmacokinetics of Compound I, single (SD) and multiple (MD, q8h 7 days) ascending doses, 3-hour IV infusion, healthy adult subjects
Type: in vivo, human
Measurement Context: human, urine, intravenous, 500 mg, 500 mg single dose; read-out: Urinary Recovery
Experimental: 56 healthy subjects were enrolled into one of 7 cohorts of 8 subjects each in the single ascending dose phase (250 mg, 500 mg, 750 mg, 1000 mg, 1250 mg, 1500 mg and 2000 mg). Thirty-two additional subjects were then enrolled into one of 4 cohorts in the multiple-dose phase (250 mg, 1000 mg, 1500 mg, and 2000 mg, given q8 h for 7 days). […] All infusions were administered over 3 hours. […]
Measurement Type: dose excreted (%)
The answer is to be given in %; state only the numeric part.

Query string: Endpoint output: dose excreted of "O=C(O)C[C@@H]1CC[C@H](NC(=O)Cc2cccs2)B(O)O1" . Value?
Result string: 80.3

====

Protocol Description: Example 6: noncompartmental plasma pharmacokinetics after third dose of the Combination (2 g meropenem/2 g Compound I q8h)
Measurement Context: both, human, plasma, intravenous, Cmax, Compound I 2 g q8h, 1.5-hour BAL Sampling Group
Measurement Type: Cmax (µg/mL)
Give just the number in µg/mL; leave the unit off.

Query string: What value of Cmax has been reported for the following molecule? "O=C(O)C[C@@H]1CC[C@H](NC(=O)Cc2cccs2)B(O)O1"
Result string: 56.1

====

Protocol Description: Example 6: noncompartmental plasma pharmacokinetics after third dose of the Combination (2 g meropenem/2 g Compound I q8h)
Measurement Context: both, human, plasma, intravenous, AUC0-8, meropenem 2 g q8h, All Subjects
Measurement Type: AUC(0-t) (µg·h/mL)
Your answer is read as µg·h/mL, so omit the unit and give the number.

Query string: Requested read-out: AUC(0-t). Entry: "C[C@@H](O)[C@H]1C(=O)N2C(C(=O)O)=C(S[C@@H]3CN[C@H](C(=O)N(C)C)C3)[C@H](C)[C@H]12"
Result string: 186

====

Protocol Description: clinical
Measurement Context: both, human, in vivo, ratio of ELF to unbound plasma concentrations based on median AUC0-8
Measurement Type: Kp
Please give only the number in your answer, with no unit.

C[C@@H](O)[C@H]1C(=O)N2C(C(=O)O)=C(S[C@@H]3CN[C@H](C(=O)N(C)C)C3)[C@H](C)[C@H]12 [meropenem, Meropenem]; 0.59

Lab note: next compound to report on.
Query string: Can you look up the measured Kp of O=C(O)C[C@@H]1CC[C@H](NC(=O)Cc2cccs2)B(O)O1 [Compound I] for me?
Result string: 0.72

====

Protocol Description: Example 6: noncompartmental plasma pharmacokinetics after third dose of the Combination (2 g meropenem/2 g Compound I q8h)
Measurement Context: both, human, plasma, intravenous, t1/2, Compound I 2 g q8h, All Subjects
Protocol: A total of twenty-five (n=25) male and female subjects who met the study entry criteria and completed all phases of the pharmacokinetic study were included in this pharmacokinetic analysis. […] Peak plasma concentration (Cmax) and time to Cmax (Tmax) were read from the observed plasma concentration-time profile after the start of the intravenous infusion of the third Combination dose. […] The elimination rate constant (β) was determined by nonlinear least-squares regression. […]
Measurement Type: half-life (h)
Kindly provide the numeric value in h only, without the unit symbol.

Query string: Find the recorded half-life belonging to "O=C(O)C[C@@H]1CC[C@H](NC(=O)Cc2cccs2)B(O)O1" and report it.
Result string: 1.27

====

Protocol Description: Example 6: noncompartmental plasma pharmacokinetics after third dose of the Combination (2 g meropenem/2 g Compound I q8h)
Measurement Context: both, human, plasma, intravenous, AUC0-8, Compound I 2 g q8h, 6-hour BAL Sampling Group
Measurement Type: AUC(0-t) (µg·h/mL)
Just the number in µg·h/mL, nothing appended.

Query string: Find the recorded AUC(0-t) belonging to O=C(O)C[C@@H]1CC[C@H](NC(=O)Cc2cccs2)B(O)O1 [Compound I] and report it.
Result string: 216

====

Protocol Description: Example 1: pharmacokinetics of Compound I, single (SD) and multiple (MD, q8h 7 days) ascending doses, 3-hour IV infusion, healthy adult subjects
Type: in vivo, human
Measurement Context: human, plasma and urine, intravenous, 1000 mg, 1000 mg single dose
Measurement Type: CL renal
State the value, then name its unit.

Query string: Need CL renal, item "O=C(O)C[C@@H]1CC[C@H](NC(=O)Cc2cccs2)B(O)O1"
Result string: 202 mL/min

====

Protocol Description: Example 6: noncompartmental plasma pharmacokinetics after third dose of the Combination (2 g meropenem/2 g Compound I q8h)
Measurement Context: both, human, plasma, intravenous, Tmax, Compound I 2 g q8h, 6-hour BAL Sampling Group
Measurement Type: Tmax (h)
// return numeric value only (unit: h, not printed)

Query string: What value of Tmax has been reported for the following compound? O=C(O)C[C@@H]1CC[C@H](NC(=O)Cc2cccs2)B(O)O1 [Compound I]
Result string: 3

====

Protocol Description: Example 1: pharmacokinetics of Compound I, single (SD) and multiple (MD, q8h 7 days) ascending doses, 3-hour IV infusion, healthy adult subjects
Type: in vivo, human
Measurement Context: human, plasma, intravenous, 1000 mg, 1000 mg single dose; read-out: T1/2 (converted)
Measurement Type: half-life (h)
Enter your answer as a number in h; do not include the unit.

Query string: Suppose we examine the compound "O=C(O)C[C@@H]1CC[C@H](NC(=O)Cc2cccs2)B(O)O1" ; what half-life value has been reported?
Result string: 1.41

====

Protocol Description: Example 1: pharmacokinetics of Compound I, single (SD) and multiple (MD, q8h 7 days) ascending doses, 3-hour IV infusion, healthy adult subjects
Type: in vivo, human
Measurement Context: human, plasma, intravenous, 1250 mg, 1250 mg single dose
Measurement Type: Tmax (h)
// note: answer is a bare numeric in h

Query string: Requested field: Tmax. Item: O=C(O)C[C@@H]1CC[C@H](NC(=O)Cc2cccs2)B(O)O1 [Compound I]
Result string: 3

====

Protocol Description: Example 6: noncompartmental plasma pharmacokinetics after third dose of the Combination (2 g meropenem/2 g Compound I q8h)
Measurement Context: both, human, plasma, intravenous, Cmax, Compound I 2 g q8h, 4-hour BAL Sampling Group
Measurement Type: Cmax (µg/mL)
Write the answer as a number in µg/mL, unit excluded.

Query string: Recorded Cmax for O=C(O)C[C@@H]1CC[C@H](NC(=O)Cc2cccs2)B(O)O1 [Compound I] , please?
Result string: 60.1
